- target-of-assay: human TLR8 (hTLR8) (Homo sapiens)
- Construct: expressed in transfected cells
- Sequence (Q9NR97 27-1041): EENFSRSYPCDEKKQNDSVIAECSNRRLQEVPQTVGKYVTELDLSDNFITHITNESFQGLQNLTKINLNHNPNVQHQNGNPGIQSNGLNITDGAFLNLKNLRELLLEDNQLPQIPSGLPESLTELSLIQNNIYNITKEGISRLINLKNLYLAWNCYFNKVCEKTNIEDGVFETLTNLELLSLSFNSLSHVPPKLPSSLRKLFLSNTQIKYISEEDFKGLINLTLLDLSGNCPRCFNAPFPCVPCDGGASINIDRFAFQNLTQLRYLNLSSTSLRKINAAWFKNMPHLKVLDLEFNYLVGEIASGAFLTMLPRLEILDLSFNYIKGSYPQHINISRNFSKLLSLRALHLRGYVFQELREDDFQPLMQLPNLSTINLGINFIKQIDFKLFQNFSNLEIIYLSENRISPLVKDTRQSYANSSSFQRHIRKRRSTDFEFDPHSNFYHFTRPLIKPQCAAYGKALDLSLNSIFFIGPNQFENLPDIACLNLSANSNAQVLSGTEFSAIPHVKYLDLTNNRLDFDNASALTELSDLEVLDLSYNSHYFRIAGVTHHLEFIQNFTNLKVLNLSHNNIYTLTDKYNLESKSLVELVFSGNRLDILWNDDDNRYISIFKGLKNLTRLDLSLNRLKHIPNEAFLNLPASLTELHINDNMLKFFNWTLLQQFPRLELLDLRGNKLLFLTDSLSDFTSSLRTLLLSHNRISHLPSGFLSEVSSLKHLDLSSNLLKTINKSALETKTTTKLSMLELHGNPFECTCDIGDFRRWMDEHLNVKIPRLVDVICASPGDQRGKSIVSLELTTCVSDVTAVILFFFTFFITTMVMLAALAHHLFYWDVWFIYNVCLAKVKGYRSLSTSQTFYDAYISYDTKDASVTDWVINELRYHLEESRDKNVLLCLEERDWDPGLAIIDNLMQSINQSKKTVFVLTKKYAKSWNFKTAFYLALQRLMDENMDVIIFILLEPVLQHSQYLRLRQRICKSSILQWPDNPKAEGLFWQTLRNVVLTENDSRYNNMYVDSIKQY
- measurement-protocol: Human TLR8 agonist activity assay (measured in a similar manner)
- Format: cell-based
- assay-context: HEK-Blue TLR cells, SEAP reporter, measured in a similar manner to TLR7; some values average of multiple measurements
measured-parameter: pEC50
// returns pEC50 (minus log10 of molar concentration), number only

I looked up CCCCN(CCO)c1nc(N)nc2cn(Cc3ccc(CNC4CC(O)C4)cc3OC)nc12 (centres unmarked) and its pEC50 for human TLR8 (hTLR8) (Homo sapiens) was 5.60

I looked up `CCCCN(CCO)c1nc(N)nc2cn(Cc3ccc(CNC4CCOCC4)n4ncnc34)nc12` and its pEC50 for human TLR8 (hTLR8) (Homo sapiens) was 5.72

I looked up `CCCCCN(CCO)c1nc(N)nc2cn(Cc3ccc(CN[C@@H]4CCOC4)cc3OC)nc12` and its pEC50 for human TLR8 (hTLR8) (Homo sapiens) was 5.97

I looked up CCCCN(CCO)c1nc(N)nc2cn(Cc3ccc(CN[C@@H]4CCOC4)cc3OC)nc12 [Compound 85] and its pEC50 for human TLR8 (hTLR8) (Homo sapiens) was 5.71

I looked up `CCCCN(CCO)c1nc(N)nc2cn(Cc3ccc(CN4CCCCC4)cc3OC)nc12` and its pEC50 for human TLR8 (hTLR8) (Homo sapiens) was 6.00

I looked up CCCCN(c1nc(N)nc2cn(Cc3c(F)cc(C4CCN(C5CC6(COC6)C5)CC4)cc3OC)nc12)C(C)CO (centres unmarked) [Compound 164] and its pEC50 for human TLR8 (hTLR8) (Homo sapiens) was 6.21

I looked up `CCCCN(CCO)c1nc(N)nc2cn(Cc3ccc(CN4CC(O)C4)cc3OC)nc12` and its pEC50 for human TLR8 (hTLR8) (Homo sapiens) was 6.15

I looked up `CCCCN(CCO)c1nc(N)nc2cn(Cc3ccc(CNCCOC)cc3OC)nc12` and its pEC50 for human TLR8 (hTLR8) (Homo sapiens) was 5.84

I looked up CCCCN(CCO)c1nc(N)nc2cn(Cc3c(F)cc(C4=CCC(NCCOC)CC4)cc3OC)nc12 (centres unmarked) and its pEC50 for human TLR8 (hTLR8) (Homo sapiens) was 5.97

I looked up `CCCCN(CCO)c1nc(N)nc2cn(Cc3c(F)cc(CNCC(C)(C)C)cc3OC)nc12` and its pEC50 for human TLR8 (hTLR8) (Homo sapiens) was 5.79

I looked up `CCCCN(CCO)c1nc(N)nc2cn(Cc3ccc(CCNC4CCOCC4)cc3OC)nc12` and its pEC50 for human TLR8 (hTLR8) (Homo sapiens) was 5.66

I looked up `CCCCN(CCO)c1nc(N)nc2cn(Cc3c(OC)cc(CN[C@@H]4CCOC4)cc3OC)nc12` and its pEC50 for human TLR8 (hTLR8) (Homo sapiens) was 5.70

I looked up `CCCCN(CCO)c1nc(N)nc2cn(Cc3ccc(CNC(C)(C)C)cc3OC)nc12` and its pEC50 for human TLR8 (hTLR8) (Homo sapiens) was 6.22

I looked up `CCCCN(CCO)c1nc(N)nc2cn(Cc3ccc(CNC(C)(C)C)cc3C(F)F)nc12` and its pEC50 for human TLR8 (hTLR8) (Homo sapiens) was 6.20

I looked up CCCCN(CCO)c1nc(N)nc2cn(Cc3c(F)cc(C4=CCC(NC5CCOCC5)CC4)cc3OC)nc12 (centres unmarked) and its pEC50 for human TLR8 (hTLR8) (Homo sapiens) was 5.77

I looked up CCCCN(c1nc(N)nc2cn(Cc3ccc(CN[C@@H]4CCOC4)cc3OC)nc12)C(C)CO (some centres unmarked) [Compound 86] and its pEC50 for human TLR8 (hTLR8) (Homo sapiens) was 6.51

I looked up CCCCN(CCO)c1nc(N)nc2cn(Cc3ccc(CNC4CCOC(C)(C)C4)cc3OC)nc12 (racemic) [Compound 103] and its pEC50 for human TLR8 (hTLR8) (Homo sapiens) was 6.69

I looked up `CCCCNCc1ccc(Cn2cc3nc(N)nc(N(CCO)CCCC)c3n2)c(C(F)F)c1` and its pEC50 for human TLR8 (hTLR8) (Homo sapiens) was 5.62

I looked up `CCCCN(CCO)c1nc(N)nc2cn(Cc3ccc(CN[C@H]4C[C@H](OC)C4)n4ccnc34)nc12` and its pEC50 for human TLR8 (hTLR8) (Homo sapiens) was 5.85

I looked up `CCCCN(CCO)c1nc(N)nc2cn(Cc3ccc(CNC4CCC4)cc3OC)nc12` and its pEC50 for human TLR8 (hTLR8) (Homo sapiens) was 5.94

I looked up `CCCCN(CCO)c1nc(N)nc2cn(Cc3ccc(CN[C@H]4C[C@H]5COC[C@H]54)cc3OC)nc12` and its pEC50 for human TLR8 (hTLR8) (Homo sapiens) was 6.26

I looked up `CCCCN(CCO)c1nc(N)nc2cn(Cc3c(F)cc(C4CCN(C5CC6(CCC6)C5)CC4)cc3OC)nc12` and its pEC50 for human TLR8 (hTLR8) (Homo sapiens) was 6.36

I looked up `CCCCN(CCO)c1nc(N)nc2cn(Cc3ccc(CN4CCOCC4)cc3OC)nc12` and its pEC50 for human TLR8 (hTLR8) (Homo sapiens) was 6.35

I looked up `CCCCN(CCO)c1nc(N)nc2cn(Cc3c(F)cc(CN[C@H]4C[C@H](OC)C4)cc3F)nc12` and its pEC50 for human TLR8 (hTLR8) (Homo sapiens) was 5.71

I looked up `CCCCN(CCO)c1nc(N)nc2cn(Cc3ccc(CNC4CCOCC4)c4cccnc34)nc12` and its pEC50 for human TLR8 (hTLR8) (Homo sapiens) was 6.31

I looked up `CCCCN(CCO)c1nc(N)nc2cn(Cc3c(F)cc(CN[C@H]4C[C@H](O)C4)cc3F)nc12` and its pEC50 for human TLR8 (hTLR8) (Homo sapiens) was 5.70

I looked up CCCCN(CCO)c1nc(N)nc2cn(Cc3ccc(CNC4C[C@@H](C)O[C@@H](C)C4)cc3OC)nc12 (some centres unmarked) and its pEC50 for human TLR8 (hTLR8) (Homo sapiens) was 6.28

I looked up `CCCCN(CCOC)c1nc(N)nc2cn(Cc3ccc(CN[C@@H]4CCOC4)cc3OC)nc12` and its pEC50 for human TLR8 (hTLR8) (Homo sapiens) was 5.73

I looked up `CCCCN(CCO)c1nc(N)nc2cn(Cc3ccc(CNC4(CO)CCOCC4)cc3OC)nc12` and its pEC50 for human TLR8 (hTLR8) (Homo sapiens) was 5.96

I looked up `CCCCN(CCO)c1nc(N)nc2cn(Cc3ccc(CNC4CCC4)n4ncnc34)nc12` and its pEC50 for human TLR8 (hTLR8) (Homo sapiens) was 6.48

I looked up `CCCCN(CCO)c1nc(N)nc2cn(Cc3ccc(CN4CCN(C)CC4)cc3OC)nc12` and its pEC50 for human TLR8 (hTLR8) (Homo sapiens) was 5.95

I looked up `CCCCN(CCO)c1nc(N)nc2cn(Cc3ccc(CO)n4ncnc34)nc12` and its pEC50 for human TLR8 (hTLR8) (Homo sapiens) was 5.83
